Taken from patent US20240075137A1.

Molecular target: T1, cynomolgus PVRIG on cells (cynomolgus, UniProt A0A2K5WVV8 41-322)
T1 construct: whole, on cells; also called cPVRIG; expi cPVRIG cells
T1 sequence: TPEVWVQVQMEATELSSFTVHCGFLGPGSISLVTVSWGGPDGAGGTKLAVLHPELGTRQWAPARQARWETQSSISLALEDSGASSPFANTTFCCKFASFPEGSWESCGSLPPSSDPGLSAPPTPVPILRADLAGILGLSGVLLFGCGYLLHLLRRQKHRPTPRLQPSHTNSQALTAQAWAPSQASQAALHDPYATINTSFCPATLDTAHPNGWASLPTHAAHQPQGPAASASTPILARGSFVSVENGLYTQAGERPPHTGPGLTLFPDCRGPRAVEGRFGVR
Test: FACS, expi cPVRIG over expi parental cells, 3.3ug/ml
# class 1 = gMFIr Expi cyno OE/par below 60 (exclusive); class 0 = gMFIr Expi cyno OE/par at/above 60

| BINDER | CLASS |
| --- | --- |
| CHA.7.537 (antibody, V domains shown) VH: QVQLKESGPGLVAPSQSLSITCTVSGFSLIGHGVNWIRQPPGKGLEWLGVIWGDGNTDYNSALKSRLSISKDNSKSQVFLKMNSLQTDDTARYFCAVNSAMDYWGQGTAVTVSS VL: NIVMTQSPKSMSMSVGERVTLNCTASENVASFVSWYQQKPEQSPKLLIYGTSNRYTGVPDRFTGSGSATDFTLTISSVQAEDLGDYHCGQSYNYPFTFGSGTKLEIE | class 1 |
| CHA.7.508 (antibody, V domains shown) VH: EVQLQQSGPDLVKPGASMKISCKASGYTFIDYNIHWVKQSQGKSLDWIGYIYPYNGGTGYNQKFKNKATLTVDSSSSTAYMEVRSLTFEDSAVYFCAREADYYGNRGQFDYWGQGTLVTVSA VL: DIQMTQSPASLSVSVGETVTITCRASENIFSNLAWYQQKQGKSPQLLVYGEANLADGVPSRFSGSGSGTQYSLKINSLQSEDFGNYYCQHFWGTPYTFGGGTTLEIK | class 1 |
| CHA.7.503 (antibody, V domains shown) VH: QVQLQQSGAELAKPGASVKMSCKASGYTFTSNWMHWVKQRPGQGLEWIGYINPSNGYTECNQKFRDKATLSADKSSSTAYMQLNSLTSADSAVYYCALMISAWLPYWGQGTLVTVSA VL: DIVLTQSPASLAISLGQRATISCRASQSVSASSYSYVHWYQQKPGQPPKLLIKYASSLESGVPARFSGSGSGTDFTLNIHPVEEEDTATYYCLHTWEIPYTFGGGTKLEIK | class 0 |
| CHA.7.535 (antibody, V domains shown) VH: EVQLQQSGPELVKPGASVKISCKTSGYTFTKNTMHWVRQSHGKSLEWIGGINPNSGGASFNQKFMGKATLTVDKSSSTAYMELRSLTSEDSAVYYCARDGYDGDWFFDVWGAGTTVTVSS VL: DIQMNQSPFSLSASLGDTVTITCHASQNIYVWLSWYQQKPGNIPKLLIYKASDLHTGVPSRFSGSGSGTDFTLNISSLQPEDIATYYCQQGQSYPRTFGGGTKLEIK | class 1 |
| CHA.7.550 (antibody, V domains shown) VH: QVQLQESGTELVKPGASVKLSCKASGYTFTSYWIHWVKQRPGQGLEWIGNINPSNGGTNYNEKFKSKAALTVDKSSSTAYMQLSSLTSEDSAVYYCARRGLPYFFDYWGQGTTLTVSS VL: DIVMTQSQKFMSTSVGDRVSVTCKGSQNVGYNVAWYQQKPGQSPKALVYSASDRHSGVPDRFAGSGSGTDFTLTISNVQSEDLAEYFCQQYNSYPLTFGAGTKLELK | class 1 |

Q: Item CHA.7.547 (antibody, V domains shown) VH: QIQLVQSGPDLKKPGETVKISCKASGYTFTTYGMSWVKQAPGRGLKWMGWINTYSGVSTFPDDFKGRFAFSLETSASTAYLQINNLKNEDSATYFCARLGMGSTTGAGYFDVWGTGTTVTVSS VL: ENVLTQSPAIMSASLGEKVTLSCRASSSVNYMYWYQQKSDASPKLWIYYTSNLAPGVPARFSGSGSGNSYSLTISSVEGEDAATYYCQQFTSSPWTFGGGTKLEIK : gMFIr Expi cyno OE/par beneath 60, strictly?
Ans: class 1
